- System: NCI/ADR-RES
- EXPERIMENT_DESCRIPTION: NCI tumour cell line growth inhibition, 48 h
Calls of active or inactive are those of the source. Rule as the data show it: active = GI50 up to about 1.1 µM and inactive = higher.
Classes used: active, inactive

COMPOUND	GROUP
CCC(=O)OCOc1ccc(/C=C2\CCC(CN(C)C)C2=O)cc1 (stereo not given)	inactive
CSC(=O)c1sc(SC)[n+](-c2ccccc2)c1O	inactive
CC(C)=NN/C(=N\c1ccc(Cl)cc1)NS(=O)(=O)c1cc2ccccc2s1	inactive
COC(=O)c1cc2c(cc1CC(Cc1ccc3c(c1)CCC3)C(=O)OC)CCC2 (stereo not given)	inactive
O=C(NC(Cc1ccc(I)cc1)C(=O)O)c1ccc(I)cc1 (stereo not given)	inactive
CCCc1c(O)c(=O)c2c(OC)cc(OC)c3c4c(OC)cc(OC)c5c(=O)c(O)c(CCC)c(c1c23)c54	active
CN(C(=O)Cc1ccc(Cl)c(Cl)c1)[C@@H]1CCCC[C@H]1[N+]1(C)CC=CC1	inactive
Cc1ccc(-c2nc3n(c2/C=N\N=C(N)N)CCS3)cc1	inactive
COC(=O)C(=O)C(C(=O)C(=O)Nc1ccc([N+](=O)[O-])cc1[N+](=O)[O-])c1nc2ccc(Cl)cc2nc1O (stereo not given)	inactive
O=S1(=O)OC(c2ccc(O)cc2)(c2ccc(O)cc2)c2ccccc21	inactive
